Tested on: K562
Assay summary: NCI tumour cell line growth inhibition, 48 h
Calls of active or inactive are those of the source. Cut-off read from the data, not from the text of the source: active = GI50 up to about 1.1 µM and inactive = higher.
What GI50 was measured for each of the following?

[
  {
    "Compound": "CC1(C)S[C@@H]2[C@H](NC(=O)CCC[C@@H](N)C(=O)O)C(=O)N2[C@H]1C(=O)O [ADICILLIN]",
    "Result": "> 50 µM (inactive)"
  },
  {
    "Compound": "COc1ccc(Cn2c(C)nc3c2C(=O)c2ccccc2C3=O)cc1",
    "Result": "3.2 µM (inactive)"
  },
  {
    "Compound": "CC(C)(C)c1ccc(O)c(C[N+](C)(C)C)c1",
    "Result": "95.5 µM (inactive)"
  },
  {
    "Compound": "CCOC(=O)C(=O)Nc1ccccc1C(C)C",
    "Result": "> 100 µM (inactive)"
  },
  {
    "Compound": "CCOC(=O)[C@H](O)[C@@H](O)C(=O)NCc1ccc(C(=O)c2ccccc2)cc1",
    "Result": "> 100 µM (inactive)"
  }
]

For every item below, please supply its GI50.
1. O=C1/C(=C/c2ccc([N+](=O)[O-])cc2)CCCc2ccccc21
2. Cc1nc(-n2nc(-c3ccccc3)cc2-c2ccccc2)sc1C(=O)/C=C/c1ccc(Cl)c(Cl)c1
3. COC(=O)c1ccccc1C1CN=NC12Cc1c(C)cc(C)cc1C2=O (stereo unspecified)
4. COc1ccc2nc3ccc(OC)cc3c(SCCCl)c2c1

> 100 µM (inactive)
15.8 µM (inactive)
> 100 µM (inactive)
9.66 µM (inactive)

For every item below, please supply its GI50.
1. COC(=O)/C(C#N)=C1\NC(=O)CC(c2ccccc2)C1C#N (stereo unspecified)
2. O=C(N/N=C(COc1ccccc1Cl)\N=C\c1cccnc1)c1ccncc1

["> 100 µM (inactive)", "> 100 µM (inactive)"]

// provenance: ChEMBL document CHEMBL1201862
